Tested on: RPMI-7951 (Melanoma)
Experiment: combination Emax (second highest fraction inhibited in the dose matrix, 72 h); higher = more inhibition; extreme values may be limits of the assay
assay-endpoint: combination Emax

{"compound": "COc1cccc(OCCCN)c1-c1cc(Nc2cnc(C#N)cn2)n[nH]1 [Prexasertib] + Cc1cc2ncnn2cc1Nc1ncc2c(n1)n(C1CCOCC1)c(=O)n2C [AZD7648] (first compound max 1 µM, 7x7, partner max 10 µM)", "assay-endpoint": "combination Emax", "numeric-value": 0.971}
{"compound": "CC(=O)Nc1cccc(-n2c(=O)n(C3CC3)c(=O)c3c(Nc4ccc(I)cc4F)n(C)c(=O)c(C)c32)c1 [Trametinib] + Cc1nc(-c2cn3c(n2)-c2ccc(-c4cnn(C(C)(C)C(N)=O)c4)cc2OCC3)n(C(C)C)n1 [Taselisib] (first compound max 1 µM, 7x7, partner max 10 µM)", "assay-endpoint": "combination Emax", "numeric-value": 0.931}
{"compound": "CN(C)CCCOc1ccc(-c2ccc3ncc4c(c3c2)n(C2CCOCC2)c(=O)n4C)cn1 [AZD0156] + CCN(CCO)CCCOc1ccc2c(Nc3cc(CC(=O)Nc4cccc(F)c4)[nH]n3)ncnc2c1 [AZD2811] (first compound max 1 µM, 7x7, partner max 1 µM)", "assay-endpoint": "combination Emax", "numeric-value": 0.257}
{"compound": "CCN(CCO)CCCOc1ccc2c(Nc3cc(CC(=O)Nc4cccc(F)c4)[nH]n3)ncnc2c1 [AZD2811] + C=CCn1c(=O)c2cnc(Nc3ccc(N4CCN(C)CC4)cc3)nc2n1-c1cccc(C(C)(C)O)n1 [AZD1775] (first compound max 1 µM, partner max 1 µM)", "assay-endpoint": "combination Emax", "numeric-value": 0.697}
{"compound": "CCc1c2c(nc3ccc(O)cc13)-c1cc3c(c(=O)n1C2)COC(=O)[C@]3(O)CC [SN-38] + CN(C)CCCOc1ccc(-c2ccc3ncc4c(c3c2)n(C2CCOCC2)c(=O)n4C)cn1 [AZD0156] (first compound max 0.3 µM, 7x7, partner max 1 µM)", "assay-endpoint": "combination Emax", "numeric-value": 0.933}
{"compound": "COc1cc2ncnc(Nc3ccc(F)c(Cl)c3)c2cc1OCCCN1CCOCC1 [Gefitinib] + CC(C)n1c(=O)n(C)c2cnc3cc(F)c(-c4ccc(OCCCN5CCCCC5)nc4)cc3c21 [AZD1390] (first compound max 10 µM, 7x7, partner max 0.3 µM)", "assay-endpoint": "combination Emax", "numeric-value": 0.0802}
{"compound": "C=CCn1c(=O)c2cnc(Nc3ccc(N4CCN(C)CC4)cc3)nc2n1-c1cccc(C(C)(C)O)n1 [AZD1775] + C1CN(CCC1(C(=O)N[C@@H](CCO)C2=CC=C(C=C2)Cl)N)C3=NC=NC4=C3C=CN4 [Capivasertib] (first compound max 3 µM, partner max 3 µM)", "assay-endpoint": "combination Emax", "numeric-value": 0.856}
{"compound": "CN(CCO)CC[C@H](CSc1ccccc1)Nc1ccc(S(=O)(=O)NC(=O)c2ccc(N3CCC([C@@H](O)c4ccccc4-c4ccc(Cl)cc4)CC3)cc2)cc1S(=O)(=O)C(F)(F)F [AZD4320] + Cc1cc2ncnn2cc1Nc1ncc2c(n1)n(C1CCOCC1)c(=O)n2C [AZD7648] (first compound max 1 µM, 7x7, partner max 10 µM)", "assay-endpoint": "combination Emax", "numeric-value": 0.516}
{"compound": "COc1nnc2ccc(N3CCC(c4ccc(OCCN5CCN(C)C(=O)[C@H]5C)cc4)CC3)nn12 [AZD5153] + CC1(C)CCC(CN2CCN(c3ccc(C(=O)NS(=O)(=O)c4ccc(NCC5CCOCC5)c([N+](=O)[O-])c4)c(Oc4cnc5[nH]ccc5c4)c3)CC2)=C(c2ccc(Cl)cc2)C1 [Venetoclax] (first compound max 1 µM, 7x7, partner max 1 µM)", "assay-endpoint": "combination Emax", "numeric-value": 0.559}
{"compound": "CC1(C)CCC(CN2CCN(c3ccc(C(=O)NS(=O)(=O)c4ccc(NCC5CCOCC5)c([N+](=O)[O-])c4)c(Oc4cnc5[nH]ccc5c4)c3)CC2)=C(c2ccc(Cl)cc2)C1 [Venetoclax] + CCN(CCO)CCCOc1ccc2c(Nc3cc(CC(=O)Nc4cccc(F)c4)[nH]n3)ncnc2c1 [AZD2811] (first compound max 1 µM, 7x7, partner max 1 µM)", "assay-endpoint": "combination Emax", "numeric-value": 0.454}
{"compound": "CN(CCO)CC[C@H](CSc1ccccc1)Nc1ccc(S(=O)(=O)NC(=O)c2ccc(N3CCC([C@@H](O)c4ccccc4-c4ccc(Cl)cc4)CC3)cc2)cc1S(=O)(=O)C(F)(F)F [AZD4320] + CN(C)CCCOc1ccc(-c2ccc3ncc4c(c3c2)n(C2CCOCC2)c(=O)n4C)cn1 [AZD0156] (first compound max 1 µM, 7x7, partner max 1 µM)", "assay-endpoint": "combination Emax", "numeric-value": 0.333}
{"compound": "CN(C)CCCOc1ccc(-c2ccc3ncc4c(c3c2)n(C2CCOCC2)c(=O)n4C)cn1 [AZD0156] + O=C(c1cc(Cc2n[nH]c(=O)c3ccccc23)ccc1F)N1CCN(C(=O)C2CC2)CC1 [Olaparib] (first compound max 3 µM, partner max 3 µM)", "assay-endpoint": "combination Emax", "numeric-value": 0.264}
{"compound": "COc1cccc(OCCCN)c1-c1cc(Nc2cnc(C#N)cn2)n[nH]1 [Prexasertib] + O=C(c1cc(Cc2n[nH]c(=O)c3ccccc23)ccc1F)N1CCN(C(=O)C2CC2)CC1 [Olaparib] (first compound max 1 µM, 7x7, partner max 10 µM)", "assay-endpoint": "combination Emax", "numeric-value": 0.974}
{"compound": "Cn1cnc2c(F)c(Nc3ccc(Br)cc3Cl)c(C(=O)NOCCO)cc21 [Selumetinib] + CC(C)n1c(=O)n(C)c2cnc3cc(F)c(-c4ccc(OCCCN5CCCCC5)nc4)cc3c21 [AZD1390] (first compound max 10 µM, 7x7, partner max 0.3 µM)", "assay-endpoint": "combination Emax", "numeric-value": 0.307}

* * *

Test system: KYSE-150 (Esophageal Squamous Cell Carcinoma)
Assay: combination Emax (second highest fraction inhibited in the dose matrix, 72 h); higher = more inhibition; extreme values may be limits of the assay
assay-endpoint: combination Emax

{"compound": "C=CCn1c(=O)c2cnc(Nc3ccc(N4CCN(C)CC4)cc3)nc2n1-c1cccc(C(C)(C)O)n1 [AZD1775] + C[C@@H]1COCCN1C2=NC(=NC(=C2)C3(CC3)[S@](=N)(=O)C)C4=C5C=CNC5=NC=C4 [AZD6738] (first compound max 1 µM, partner max 10 µM)", "test-system": "KYSE-150 (Esophageal Squamous Cell Carcinoma)", "numeric-value": 0.756}
{"compound": "C=CCn1c(=O)c2cnc(Nc3ccc(N4CCN(C)CC4)cc3)nc2n1-c1cccc(C(C)(C)O)n1 [AZD1775] + O=C(c1cc(Cc2n[nH]c(=O)c3ccccc23)ccc1F)N1CCN(C(=O)C2CC2)CC1 [Olaparib] (first compound max 1 µM, partner max 10 µM)", "test-system": "KYSE-150 (Esophageal Squamous Cell Carcinoma)", "numeric-value": 0.493}

* * *

Tested on: LOU-NH91 (Squamous Cell Lung Carcinoma)
Assay: combination Emax (second highest fraction inhibited in the dose matrix, 72 h); higher = more inhibition; extreme values may be limits of the assay
Let's look at some compounds and their measured combination Emax.

{"compound": "CN(CCO)CC[C@H](CSc1ccccc1)Nc1ccc(S(=O)(=O)NC(=O)c2ccc(N3CCC([C@@H](O)c4ccccc4-c4ccc(Cl)cc4)CC3)cc2)cc1S(=O)(=O)C(F)(F)F [AZD4320] + CCN(CCO)CCCOc1ccc2c(Nc3cc(CC(=O)Nc4cccc(F)c4)[nH]n3)ncnc2c1 [AZD2811] (first compound max 1 µM, 7x7, partner max 1 µM)", "combination Emax": 0.877}
{"compound": "COc1cccc(OCCCN)c1-c1cc(Nc2cnc(C#N)cn2)n[nH]1 [Prexasertib] + C[C@@H]1COCCN1C2=NC(=NC(=C2)C3(CC3)[S@](=N)(=O)C)C4=C5C=CNC5=NC=C4 [AZD6738] (first compound max 1 µM, 7x7, partner max 10 µM)", "combination Emax": 0.461}
{"compound": "CC1(C)CCC(CN2CCN(c3ccc(C(=O)NS(=O)(=O)c4ccc(NCC5CCOCC5)c([N+](=O)[O-])c4)c(Oc4cnc5[nH]ccc5c4)c3)CC2)=C(c2ccc(Cl)cc2)C1 [Venetoclax] + Cc1cc2ncnn2cc1Nc1ncc2c(n1)n(C1CCOCC1)c(=O)n2C [AZD7648] (first compound max 1 µM, 7x7, partner max 10 µM)", "combination Emax": 0.264}
{"compound": "CC1(C)CCC(CN2CCN(c3ccc(C(=O)NS(=O)(=O)c4ccc(NCC5CCOCC5)c([N+](=O)[O-])c4)c(Oc4cnc5[nH]ccc5c4)c3)CC2)=C(c2ccc(Cl)cc2)C1 [Venetoclax] + COc1cc(Nc2ncc3c(n2)-c2ccc(Cl)cc2C(c2c(F)cccc2OC)=NC3)ccc1C(=O)O [Alisertib] (first compound max 1 µM, 7x7, partner max 10 µM)", "combination Emax": 0.479}
{"compound": "CC(=O)c1c(C)c2cnc(Nc3ccc(N4CCNCC4)cn3)nc2n(C2CCCC2)c1=O [Palbociclib] + Cn1cnc2c(F)c(Nc3ccc(Br)cc3Cl)c(C(=O)NOCCO)cc21 [Selumetinib] (first compound max 10 µM, 7x7, partner max 10 µM)", "combination Emax": 0.213}
{"compound": "C[C@@H](c1ccc2nccn2c1)n1nnc2ncc(-c3cnn(C)c3)nc21 [Savolitinib] + CN(CC[C@H](CSC1=CC=CC=C1)NC2=C(C=C(C=C2)S(=O)(=O)NC(=O)C3=CC=C(C=C3)N4CCC(CC4)[C@H](C5=CC=CC=C5C6=CC=C(C=C6)Cl)O)S(=O)(=O)C(F)(F)F)CCO [AZD4320] (first compound max 1 µM, 7x7, partner max 1 µM)", "combination Emax": 0.334}
